Listed next: entries and their corresponding Percent Effect.
Biological target: Arginase-2, mitochondrial (Homo sapiens) (UniProt P78540)
Sequence (P78540 whole entry): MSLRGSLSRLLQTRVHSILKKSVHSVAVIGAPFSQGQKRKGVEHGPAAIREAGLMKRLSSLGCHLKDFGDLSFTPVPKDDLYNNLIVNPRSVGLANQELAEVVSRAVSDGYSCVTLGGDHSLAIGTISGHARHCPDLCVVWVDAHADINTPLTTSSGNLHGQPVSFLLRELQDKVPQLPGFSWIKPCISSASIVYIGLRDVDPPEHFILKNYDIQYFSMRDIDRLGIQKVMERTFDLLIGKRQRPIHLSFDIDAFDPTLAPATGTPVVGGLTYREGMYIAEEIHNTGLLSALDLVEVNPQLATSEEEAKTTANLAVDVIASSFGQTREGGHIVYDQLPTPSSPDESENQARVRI
Experiment: in vitro enzyme assay to detect the production of urea directly proportional to the activity of Arginase II
Assay type: functional
Parameters: scale not given: in the data most compounds retested in dose-response had high values
Details: 33.3 µM
Express your answer in %, writing the number without its unit.

Take a look at these entries with their results.
{"molecule": "COc1ncccc1NC(=O)NCC1CCS(=O)(=O)C1 (centres undefined)", "Percent Effect / %": -3.92}
{"molecule": "Cc1nnc2n1CCN(C(C(=O)NC1CC1)c1ccccc1)C2 (centres undefined)", "Percent Effect / %": 3.69}
{"molecule": "CC(C)c1nnc2n1CCN(C(=O)c1ccnc(N(C)C)c1)C2", "Percent Effect / %": -5.76}
{"molecule": "O=C(NCc1cc[nH]n1)NCC(O)COc1cccc(F)c1 (centres undefined)", "Percent Effect / %": -7.98}
{"molecule": "CC(C)(C)c1n[nH]c(C2CN(C(=O)CCc3cscn3)CCO2)n1 (centres undefined)", "Percent Effect / %": 5.33}
{"molecule": "Cc1noc(C)c1CN1CCN(Cc2ccncc2)c2ncccc2C1", "Percent Effect / %": -1.17}
{"molecule": "CCOc1cc(CNC(=O)N2CCC(Cc3cnn(C)c3)C2)ccn1 (centres undefined)", "Percent Effect / %": 0.82}
{"molecule": "Cn1cnnc1C1CCCN(C(=O)c2cc(Cl)c3c(c2)OCO3)C1 (centres undefined)", "Percent Effect / %": 2.22}
{"molecule": "Cc1csc(N2CCN(CCc3ccccn3)CC2C)n1 (centres undefined)", "Percent Effect / %": -3.64}
{"molecule": "NC(=O)c1cc(C2CCCN(CCc3ccccn3)C2)n[nH]1 (centres undefined)", "Percent Effect / %": 4.1}

Using the record for O=C(NCCN1CCc2ccccc2C1)c1scnc1Cl , report its Percent Effect.
-3.24

Now give it for CC(C)Cc1noc(CN2CCC(NC(=O)c3cccs3)CC2)n1 too.
-8.28

Now give it for CN1CCc2onc(CNc3ncccn3)c2C1 too.
-53.9

Now give it for Cc1nc(N2CCN(C(=O)C(C)(C)C)CC2)cc(-n2cnc(C)c2C)n1 too.
-44.1

Now give it for Cc1cc(C)n(CC2CCCN2C(=O)c2ccc(C(N)=O)cn2)n1 (centres undefined) too.
1.5

Now give it for COc1c(C2CCCN2C(=O)c2c[nH]c3ncccc23)c(C)nn1C (centres undefined) too.
2.25

Now give it for Cc1nc2c(c(C)c1CC(=O)NCc1cccc(C#N)c1)c(=O)[nH]n2C too.
1.9

Now give it for Cc1nn(C)c2c(N3CCN(C(=O)NC4CCCCC4)CC3)ncnc12 too.
0.528

Now give it for CCn1ncc(NC(=O)c2cc(C3CC3)nc3c2c(C)nn3C)c1C too.
-2.21

Now give it for O=C(CCc1ccccc1)N1CCn2cc(CN3CCCC3)nc2C1 too.
-3.23

Now give it for CCN1CCN(C2CCN(Cc3c(C)noc3C)CC2)C1=O too.
-0.38

Now give it for Cc1c(C(=O)NCC2CCCO2)nnn1-c1cccc2c1CCN(C)C2 (centres undefined) too.
2.37

Now give it for CC(NC1(CNC(=O)C(C)(C)C#N)CCOCC1)c1ccccc1 (centres undefined) too.
-1.74

Now give it for Cc1nnc(CCNC2CCN(c3ncnc4c(C)csc34)CC2)s1 too.
-2.76
